# tested.target: HLA-B*39:01
# assay: IEDB peptide-MHC binding, purified MHC/direct/fluorescence; filed as Kd, often an IC50 or EC50 that approximates it; bounds were set here for any values at or beyond the usual limits of such assays
# test.settings: source organism: Mycolicibacterium gilvum PYR-GCK
test.readout: Kd (µM)
The response must be a number in µM with no trailing unit.

Query string: I'd like to know its Kd. The sequence in question is PHDPDFLVL
Result string: 6.76

* * *

# tested.target: HLA-A*68:02
# assay: IEDB peptide-MHC binding, purified MHC/direct/fluorescence; filed as Kd, often an IC50 or EC50 that approximates it; bounds were set here for any values at or beyond the usual limits of such assays
# test.settings: source organism: Orthohantavirus andesense
pKd: −log10 of the molar value.
test.readout: pKd

Query string: I'd like to know its pKd. The sequence in question is VWKQLFPEL
Result string: ≤ 4.70

* * *

# tested.target: HLA-A*32:01
# assay: IEDB peptide-MHC binding, purified MHC/competitive/radioactivity; filed as Kd, often an IC50 or EC50 that approximates it; bounds were set here for any values at or beyond the usual limits of such assays
# test.settings: source organism: Dengue virus 3 Martinique/1243/1999
test.readout: Kd

Query string: I'd like to know its Kd. The sequence in question is SRAWNVWEVE
Result string: ≥ 26.5 µM

Query string: I'd like to know its Kd. The sequence in question is LEFFMMVLL
Result string: 2.04 µM

Query string: I'd like to know its Kd. The sequence in question is GSAKLQWFVE
Result string: ≥ 69.9 µM

* * *

# tested.target: HLA-B*58:01
# assay: IEDB peptide-MHC binding, purified MHC/direct/fluorescence; filed as Kd, often an IC50 or EC50 that approximates it; bounds were set here for any values at or beyond the usual limits of such assays
# test.settings: source organism: Brucella suis
pKd: −log10 of the molar value.
test.readout: pKd

Query string: I'd like to know its pKd. The sequence in question is DVIGNDRQE
Result string: ≤ 4.70

* * *

# tested.target: HLA-B*07:02
# assay: IEDB peptide-MHC binding, purified MHC/direct/fluorescence; filed as Kd, often an IC50 or EC50 that approximates it; bounds were set here for any values at or beyond the usual limits of such assays
# test.settings: source organism: Mammarenavirus lassaense
pKd: −log10 of the molar value.
test.readout: pKd

Query string: I'd like to know its pKd. The sequence in question is SHGIDVTDL
Result string: ≤ 4.70

* * *

# tested.target: HLA-A*02:11
# assay: IEDB peptide-MHC binding, purified MHC/direct/fluorescence; filed as Kd, often an IC50 or EC50 that approximates it; bounds were set here for any values at or beyond the usual limits of such assays
# test.settings: source organism: Zaire ebolavirus
pKd: −log10 of the molar value.
test.readout: pKd

Query string: I'd like to know its pKd. The sequence in question is GRYNLISPK
Result string: ≤ 4.70

Query string: I'd like to know its pKd. The sequence in question is SLLHESTLK
Result string: ≤ 4.70

Query string: I'd like to know its pKd. The sequence in question is NSTHNTPVY
Result string: ≤ 4.70

* * *

# tested.target: HLA-A*31:01
# assay: IEDB peptide-MHC binding, purified MHC/direct/fluorescence; filed as Kd, often an IC50 or EC50 that approximates it; bounds were set here for any values at or beyond the usual limits of such assays
# test.settings: source organism: Brucella abortus
test.readout: Kd

Query string: I'd like to know its Kd. The sequence in question is SRIGAWASK
Result string: ≥ 20 µM
